Assayed Target: Receptor-interacting serine/threonine-protein kinase 1 (Homo sapiens)
Protocol Description: Inhibition of RIPK1 in human FADD-deficient Jurkat I 2.1 cells assessed as protection against TNFalpha-induced necroptosis by measuring remaining viable cells at 10 uM measured after 24 hrs by MTS assay relative to TNFalpha
Format: cell-based
Property: Activity (%)
The figure you give is taken to be in %; do not add the unit.

Solved entries (count: 8):
# Line Notation, Property, Recorded Number
measured = [
    ("CCCNc1nc2ccc([N+](=O)[O-])cc2[nH]1", "Activity", 20),
    ("CCCCNc1nc2ccc(-c3cccc(OC)c3)cc2[nH]1", "Activity", -16.8),
    ("O=[N+]([O-])c1ccc2nc(Nc3ccc(Br)cc3)[nH]c2c1", "Activity", -6.1),
    ("O=[N+]([O-])c1cccc2nc(NC3CCCCC3)[nH]c12", "Activity", 13),
    ("CCCCNc1nc2ccc(Br)cc2[nH]1", "Activity", 7.3),
    ("CCNc1nc2ccc(-c3cccc(OC)c3)cc2[nH]1", "Activity", -12.8),
    ("O=C(Nc1nc2ccc([N+](=O)[O-])cc2[nH]1)c1ccccc1", "Activity", -21.3),
    ("CC(C)Nc1nc2cccc([N+](=O)[O-])c2[nH]1", "Activity", 1),
]

*Q* Indicate its recorded Activity; the compound in question is C=CCNc1nc2ccc([N+](=O)[O-])cc2[nH]1
*A* 4.7

*Q* Indicate its recorded Activity; the compound in question is O=[N+]([O-])c1ccc2nc(Nc3ccc(C(F)(F)F)cc3)[nH]c2c1
*A* -30.8

*Q* Indicate its recorded Activity; the compound in question is CCNC(=O)CNc1nc2ccc([N+](=O)[O-])cc2[nH]1
*A* 1.9

*Q* Indicate its recorded Activity; the compound in question is CCNc1nc2ccc([N+](=O)[O-])cc2[nH]1
*A* 6.4
